# Tested on: K24384-001-R-PDC complex spheroids, viability
# Assay notes: Anticancer human tumor K24384-001-R-PDC patient-derived pancreatic adenocarcinoma cell line growth inhibition [GQUAD]; active means viability on the fitted dose curve at most 10% of control; inactive means the rest
# Measurement context: second compound 0.1 µM; first compound 10 µM
Outcomes: active, inactive

Compound	Answer label
Cc1cccc(N(C)C(=O)C2C(O)CCN2c2nc(C)cc(C(F)(F)F)c2C#N)c1 (stereo unspecified) + Cc1[nH]c2ccc(F)cc2c1-c1nc2c3cccnc3c3ncccc3c2[nH]1	inactive
C#Cc1c(F)ccc2cc(O)cc(-c3ncc4c(N5CC6CCC(C5)N6)nc(OCC56CCCN5CC(F)C6)nc4c3F)c12 (stereo unspecified) + Cc1[nH]c2ccc(F)cc2c1-c1nc2c3cccnc3c3ncccc3c2[nH]1	inactive
O=c1[nH]cc(F)c(=O)[nH]1 + Cc1cnc(CNC(=O)c2c(=O)c3ccc(N4CCCN(C)CC4)nc3n3c2sc2ccccc23)cn1	inactive
CC1COCCN1c1cc(C2(S(C)(=N)=O)CC2)nc(-c2ccnc3[nH]ccc23)n1 (stereo unspecified) + Cc1cnc(CNC(=O)c2c(=O)c3ccc(N4CCCN(C)CC4)nc3n3c2sc2ccccc23)cn1	inactive
CC1COCCN1c1cc(C2(S(C)(=N)=O)CC2)nc(-c2ccnc3[nH]ccc23)n1 (stereo unspecified) + Cc1[nH]c2ccc(F)cc2c1-c1nc2c3cccnc3c3ncccc3c2[nH]1	inactive
COc1cc(C2c3cc4c(cc3C(OC3OC5COC(C)OC5C(O)C3O)C3COC(=O)C23)OCO4)cc(OC)c1O (stereo unspecified) + CN(C)c1ccc(Nc2c3ccc(NC(=O)CCN4CCCC4)cc3nc3cc(NC(=O)CCN4CCCC4)ccc23)cc1	inactive
O=C(NO)c1cnc(N2CCN(S(=O)(=O)c3ccc4ccccc4c3)CC2)nc1 + Cc1[nH]c2ccc(F)cc2c1-c1nc2c3cccnc3c3ncccc3c2[nH]1	active
Cc1cccc(N(C)C(=O)C2C(O)CCN2c2nc(C)cc(C(F)(F)F)c2C#N)c1 (stereo unspecified) + CN(C)c1ccc(Nc2c3ccc(NC(=O)CCN4CCCC4)cc3nc3cc(NC(=O)CCN4CCCC4)ccc23)cc1	inactive
CC(C)n1c(=O)n(C)c2cnc3cc(F)c(-c4ccc(OCCCN5CCCCC5)nc4)cc3c21 + CN(C)c1ccc(Nc2c3ccc(NC(=O)CCN4CCCC4)cc3nc3cc(NC(=O)CCN4CCCC4)ccc23)cc1	inactive
CC(C)(O)C1CCC(Nc2ccc3ncc(-c4cccc(C(F)(F)F)c4)n3n2)CC1 (stereo unspecified) + CN(C)c1ccc(Nc2c3ccc(NC(=O)CCN4CCCC4)cc3nc3cc(NC(=O)CCN4CCCC4)ccc23)cc1	inactive
COc1ncnc(C2CC2)c1-c1ncc2cnn(Cc3ccc(-c4nc(C(F)(F)F)cn4C(C)C)cc3)c2n1 + CN(C)c1ccc(Nc2c3ccc(NC(=O)CCN4CCCC4)cc3nc3cc(NC(=O)CCN4CCCC4)ccc23)cc1	inactive

* * *

# System: K24384-001-R-PDC complex spheroids, viability
# Assay notes: Anticancer human tumor K24384-001-R-PDC cell line growth inhibition [GQUAD];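 further: spheroids exposed to compounds for seven days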
# Measurement context: second compound 0.316 µM; first compound 1 µM; active compounds read low
# Text: DNA G-quadruplex Stabilizer Agents in Combinations in Complex Spheroids A high-throughput screen of multi-cell type tumor spheroids was designed to identify active combinations of DNA G-quadruplex stabilizer agents and targeted small molecules. […] Compounds. […] If the clinical Cmax for an agent had not been determined, the highest concentration tested was 10 microM. […]
This section presents compounds with their documented viability, T/C values.
Measured endpoint: viability, T/C

Compound	Reading
Cc1cccc(N(C)C(=O)C2C(O)CCN2c2nc(C)cc(C(F)(F)F)c2C#N)c1 (centres undefined) + CN(C)c1ccc(Nc2c3ccc(NC(=O)CCN4CCCC4)cc3nc3cc(NC(=O)CCN4CCCC4)ccc23)cc1	87.7%
CC(C)n1c(=O)n(C)c2cnc3cc(F)c(-c4ccc(OCCCN5CCCCC5)nc4)cc3c21 + Cc1[nH]c2ccc(F)cc2c1-c1nc2c3cccnc3c3ncccc3c2[nH]1	96.6%
C=CCn1c(=O)c2cnc(Nc3ccc(N4CCN(C)CC4)cc3)nc2n1-c1cccc(C(C)(C)O)n1 + Cc1[nH]c2ccc(F)cc2c1-c1nc2c3cccnc3c3ncccc3c2[nH]1	17%
CC(C)n1c(=O)n(C)c2cnc3cc(F)c(-c4ccc(OCCCN5CCCCC5)nc4)cc3c21 + CN(C)c1ccc(Nc2c3ccc(NC(=O)CCN4CCCC4)cc3nc3cc(NC(=O)CCN4CCCC4)ccc23)cc1	110%
COc1cc(C2c3cc4c(cc3C(OC3OC5COC(C)OC5C(O)C3O)C3COC(=O)C23)OCO4)cc(OC)c1O (centres undefined) + Cc1[nH]c2ccc(F)cc2c1-c1nc2c3cccnc3c3ncccc3c2[nH]1	59.3%
CCCS(=O)(=O)Nc1ccc(F)c(C(=O)c2c[nH]c3ncc(-c4ccc(Cl)cc4)cc23)c1F + CN(C)c1ccc(Nc2c3ccc(NC(=O)CCN4CCCC4)cc3nc3cc(NC(=O)CCN4CCCC4)ccc23)cc1	125%
Nc1ccn(C2OC(CO)C(O)C2(F)F)c(=O)n1 (centres undefined) + Cc1[nH]c2ccc(F)cc2c1-c1nc2c3cccnc3c3ncccc3c2[nH]1	34.8%
C#Cc1c(F)ccc2cc(O)cc(-c3ncc4c(N5CC6CCC(C5)N6)nc(OCC56CCCN5CC(F)C6)nc4c3F)c12 (centres undefined) + Cc1cnc(CNC(=O)c2c(=O)c3ccc(N4CCCN(C)CC4)nc3n3c2sc2ccccc23)cn1	31.7%
Nc1ccn(C2OC(CO)C(O)C2(F)F)c(=O)n1 (centres undefined) + CN(C)c1ccc(Nc2c3ccc(NC(=O)CCN4CCCC4)cc3nc3cc(NC(=O)CCN4CCCC4)ccc23)cc1	30.3%
CC(=O)O[C@H]1C(=O)[C@@]2(C)[C@H]([C@H](OC(=O)c3ccccc3)[C@]3(O)C[C@H](OC(=O)[C@H](O)[C@@H](NC(=O)c4ccccc4)c4ccccc4)C(C)=C1C3(C)C)[C@]1(OC(C)=O)CO[C@@H]1C[C@@H]2O + Cc1cnc(CNC(=O)c2c(=O)c3ccc(N4CCCN(C)CC4)nc3n3c2sc2ccccc23)cn1	29.9%
COc1ncnc(C2CC2)c1-c1ncc2cnn(Cc3ccc(-c4nc(C(F)(F)F)cn4C(C)C)cc3)c2n1 + CN(C)c1ccc(Nc2c3ccc(NC(=O)CCN4CCCC4)cc3nc3cc(NC(=O)CCN4CCCC4)ccc23)cc1	102%
CCCS(=O)(=O)Nc1ccc(F)c(C(=O)c2c[nH]c3ncc(-c4ccc(Cl)cc4)cc23)c1F + Cc1[nH]c2ccc(F)cc2c1-c1nc2c3cccnc3c3ncccc3c2[nH]1	137%
C=CC(=O)N1CCN(c2nc(=O)n(-c3c(C)ccnc3C(C)C)c3nc(-c4c(O)cccc4F)c(F)cc23)C(C)C1 (centres undefined) + Cc1[nH]c2ccc(F)cc2c1-c1nc2c3cccnc3c3ncccc3c2[nH]1	119%
O=C(c1cc(Cc2n[nH]c(=O)c3ccccc23)ccc1F)N1CCN(C(=O)C2CC2)CC1 + Cc1cnc(CNC(=O)c2c(=O)c3ccc(N4CCCN(C)CC4)nc3n3c2sc2ccccc23)cn1	88.3%
COc1cccc2c1C(=O)c1c(O)c3c(c(O)c1C2=O)CC(O)(C(=O)CO)CC3OC1CC(N)C(O)C(C)O1 (centres undefined) + CN(C)c1ccc(Nc2c3ccc(NC(=O)CCN4CCCC4)cc3nc3cc(NC(=O)CCN4CCCC4)ccc23)cc1	20.8%
COc1cccc2c1C(=O)c1c(O)c3c(c(O)c1C2=O)CC(O)(C(=O)CO)CC3OC1CC(N)C(O)C(C)O1 (centres undefined) + Cc1[nH]c2ccc(F)cc2c1-c1nc2c3cccnc3c3ncccc3c2[nH]1	22.4%
C=CC(=O)N1CCN(c2nc(=O)n(-c3c(C)ccnc3C(C)C)c3nc(-c4c(O)cccc4F)c(F)cc23)C(C)C1 (centres undefined) + CN(C)c1ccc(Nc2c3ccc(NC(=O)CCN4CCCC4)cc3nc3cc(NC(=O)CCN4CCCC4)ccc23)cc1	96.6%
COc1ccc([C@@H](O)c2cc(-c3ncnc4cc(N5CCOCC5)ccc34)c(F)cc2Cl)nn1 + Cc1[nH]c2ccc(F)cc2c1-c1nc2c3cccnc3c3ncccc3c2[nH]1	66.8%
CC(=O)O[C@H]1C(=O)[C@@]2(C)[C@H]([C@H](OC(=O)c3ccccc3)[C@]3(O)C[C@H](OC(=O)[C@H](O)[C@@H](NC(=O)c4ccccc4)c4ccccc4)C(C)=C1C3(C)C)[C@]1(OC(C)=O)CO[C@@H]1C[C@@H]2O + CN(C)c1ccc(Nc2c3ccc(NC(=O)CCN4CCCC4)cc3nc3cc(NC(=O)CCN4CCCC4)ccc23)cc1	19.8%

* * *

# Test system: K24384-001-R-PDC complex spheroids, viability
# Assay notes: Anticancer human tumor K24384-001-R-PDC cell line growth inhibition [GQUAD];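 further: spheroids exposed to compounds for seven days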
# Measurement context: second compound 3.16 µM; first compound 0.0316 µM; active compounds read low

Compound	viability, T/C, %
Cc1cccc(N(C)C(=O)C2C(O)CCN2c2nc(C)cc(C(F)(F)F)c2C#N)c1 (stereo unspecified) + Cc1cnc(CNC(=O)c2c(=O)c3ccc(N4CCCN(C)CC4)nc3n3c2sc2ccccc23)cn1	38.1
CC1COCCN1c1cc(C2(S(C)(=N)=O)CC2)nc(-c2ccnc3[nH]ccc23)n1 (stereo unspecified) + Cc1cnc(CNC(=O)c2c(=O)c3ccc(N4CCCN(C)CC4)nc3n3c2sc2ccccc23)cn1	41.9
C=CC(=O)N1CCN(c2nc(=O)n(-c3c(C)ccnc3C(C)C)c3nc(-c4c(O)cccc4F)c(F)cc23)C(C)C1 (stereo unspecified) + CN(C)c1ccc(Nc2c3ccc(NC(=O)CCN4CCCC4)cc3nc3cc(NC(=O)CCN4CCCC4)ccc23)cc1	101
O=C(c1cc(Cc2n[nH]c(=O)c3ccccc23)ccc1F)N1CCN(C(=O)C2CC2)CC1 + Cc1cnc(CNC(=O)c2c(=O)c3ccc(N4CCCN(C)CC4)nc3n3c2sc2ccccc23)cn1	43.5
C=CCn1c(=O)c2cnc(Nc3ccc(N4CCN(C)CC4)cc3)nc2n1-c1cccc(C(C)(C)O)n1 + Cc1cnc(CNC(=O)c2c(=O)c3ccc(N4CCCN(C)CC4)nc3n3c2sc2ccccc23)cn1	36.4
Cc1[nH]c2ccccc2c1CCNCc1ccc(/C=C/C(=O)NO)cc1 + CN(C)c1ccc(Nc2c3ccc(NC(=O)CCN4CCCC4)cc3nc3cc(NC(=O)CCN4CCCC4)ccc23)cc1	94.6
Nc1ccn(C2OC(CO)C(O)C2(F)F)c(=O)n1 (stereo unspecified) + CN(C)c1ccc(Nc2c3ccc(NC(=O)CCN4CCCC4)cc3nc3cc(NC(=O)CCN4CCCC4)ccc23)cc1	76.5
Cn1ncnc1[C@H]1c2n[nH]c(=O)c3cc(F)cc(c23)N[C@@H]1c1ccc(F)cc1 + Cc1[nH]c2ccc(F)cc2c1-c1nc2c3cccnc3c3ncccc3c2[nH]1	73.5
CC(C)(O)C1CCC(Nc2ccc3ncc(-c4cccc(C(F)(F)F)c4)n3n2)CC1 (stereo unspecified) + Cc1[nH]c2ccc(F)cc2c1-c1nc2c3cccnc3c3ncccc3c2[nH]1	64.6
CC1COCCN1c1cc(-c2ccnn2C)c2ccnc(-c3ccn[nH]3)c2n1 (stereo unspecified) + Cc1cnc(CNC(=O)c2c(=O)c3ccc(N4CCCN(C)CC4)nc3n3c2sc2ccccc23)cn1	32.8
C#Cc1c(F)ccc2cc(O)cc(-c3ncc4c(N5CC6CCC(C5)N6)nc(OCC56CCCN5CC(F)C6)nc4c3F)c12 (stereo unspecified) + CN(C)c1ccc(Nc2c3ccc(NC(=O)CCN4CCCC4)cc3nc3cc(NC(=O)CCN4CCCC4)ccc23)cc1	89.3

Data origin, for the record: PubChem BioAssay AID2060483
